# Test system: UACC-257 melanoma
# Test: NCI-60 one-dose screen, 48 h (100 = growth as untreated, 0 = no growth, -100 = all killed)
# Condition summary: 10 µM unless noted
# Description: Cells are grown in 96 well plates and exposed to the test compound for 48 hours. Compounds are tested at a single concentration, which is 10^-5 M for most compounds. The reported endpoint is percent growth (GI% or GIPRCNT), where numbers from 0 - 100% represent growth inhibition, and numbers from -100% - 0 represent cell death. For example, a value of 40 represents 60% growth inhibition. A value of 0 means no net growth occurred over the course of the experiment. […]
Compounds without any hit were thinned out: in the full panel of roughly 83,000, 20% have a hit.
// rule not met strictly below 60% in growth; rule met otherwise

Solved entries:
Nc1cc(Cl)cc2cccnc12
rule met
CCN(CCNc1ccc(C)c2sc3cc(Cl)ccc3c(=O)c12)CC(C)O (centres undefined)
rule not met
C#C[C@]1(O)CC[C@H]2[C@@H]3CC=C4c5nc(Nc6ccc(OC)cc6OC)sc5CC[C@]4(C)[C@H]3CC[C@@]21C
rule not met

Query :: Exam item: decide whether the reported growth for "NC(=O)c1cccc(-c2ccc(S(=O)(=O)Nc3ccc4c(c3)N(C(=O)C3CC3)CCC4)cc2)c1" is at least 60%.
Result :: rule not met
